Tested on: HIV
test_name: microbe, parasite or virus in culture
Assay type: cell-based
settings: Human immunodeficiency virus 1, MT4; 50% protection of HIV-infected MT-4 cells; read-out: EC50
parameter_measured: pEC50
On this scale, pEC50 is minus log10 of a concentration expressed in M (mol/L).

Check out these entries, answers already filled in.
| compound | quantitative_readout |
| --- | --- |
| CCCC(C(=O)O)c1c(C)nc2cc(C(C)(C)C)nn2c1-c1ccc2c(c1)CCO2 (stereo not drawn) [CPD-68] | 5.19 |
| CCCC(C(=O)O)c1c(C)nc2cc(-c3ccco3)nn2c1-c1ccc(C)cc1 (stereo not drawn) [CPD-78] | 4.67 |

Enquiry: Return reported pEC50 for target or system HIV, item CCCC(C(=O)O)c1c(C)nc2cc(C(C)(C)C)nn2c1-c1ccc(C)cc1 (stereo not drawn) [CPD-59] .
Return: 4.84

Enquiry: Provide pEC50, recorded with HIV, of CCCC(C(=O)O)c1c(C)nc2nc(C(C)C)nn2c1-c1ccc(C)cc1 (stereo not drawn) [CPD-121]
Return: 3.91

Enquiry: Answer with pEC50 of CCCC(C(=O)O)c1c(C)nc2cc(C(C)(C)C)nn2c1-c1ccc2sccc2c1 (stereo not drawn) [CPD-67] measured for HIV.
Return: 5.53
